- procedure.summary: qHTS assay for small molecule agonists of the p53 signaling pathway - cell viability (AID 651633); also: nearly all actives have a fitted effect of over 30% in size
- condition.description: p53RE-bla HCT-116 viability, ATP luminescence, 16 h; series mostly up to 83.3 µM
Results filed as inconclusive are left out. The source made the active and inactive calls. Calls follow the shape of the full dose curve.
Outcomes: active, inactive

molecule | class.name
Cc1cccc(C(C)c2cnc[nH]2)c1C (stereo not drawn) | inactive
C=CCN(C1=NCCN1)c1c(Cl)cccc1Cl | inactive
F/C(COc1ccc2c(c1)[nH]c1ccccc12)=C1/CN2CCC1CC2 | inactive
S=C(S)N1CCNCC1 | inactive
CCCCNC(C)(C)[P+](=O)O | inactive
O=C1C=C2C=C[C@@H]3C[C@@]2(O1)[C@H]1CCCCN31 | inactive
O=P1(N(CCCl)CCCl)NC(OO)CCO1 (stereo not drawn) | inactive
COC(=O)[C@H]1[C@@H](OC(=O)c2ccccc2)C[C@@H]2CC[C@H]1N2C | inactive
CC(=O)O[C@H]1CC[C@H]2[C@@H]3CCC4=CC(=O)CCC4=C3C=C[C@]12C | inactive
CCCCCc1cc(O)c2c(c1)OC(C)(C)c1ccc(C)cc1-2 | active
CNC(C)CC1CCCCC1 (stereo not drawn) | inactive
CN1c2ccccc2C(NCCCCCCC(=O)O)c2ccc(Cl)cc2S1(=O)=O (stereo not drawn) | inactive
C[C@@H](N)C(=O)c1ccccc1 | inactive

---

- system: Acetylcholinesterase (Homo sapiens) (UniProt P22303)
- Sequence (P22303 whole entry, looked up): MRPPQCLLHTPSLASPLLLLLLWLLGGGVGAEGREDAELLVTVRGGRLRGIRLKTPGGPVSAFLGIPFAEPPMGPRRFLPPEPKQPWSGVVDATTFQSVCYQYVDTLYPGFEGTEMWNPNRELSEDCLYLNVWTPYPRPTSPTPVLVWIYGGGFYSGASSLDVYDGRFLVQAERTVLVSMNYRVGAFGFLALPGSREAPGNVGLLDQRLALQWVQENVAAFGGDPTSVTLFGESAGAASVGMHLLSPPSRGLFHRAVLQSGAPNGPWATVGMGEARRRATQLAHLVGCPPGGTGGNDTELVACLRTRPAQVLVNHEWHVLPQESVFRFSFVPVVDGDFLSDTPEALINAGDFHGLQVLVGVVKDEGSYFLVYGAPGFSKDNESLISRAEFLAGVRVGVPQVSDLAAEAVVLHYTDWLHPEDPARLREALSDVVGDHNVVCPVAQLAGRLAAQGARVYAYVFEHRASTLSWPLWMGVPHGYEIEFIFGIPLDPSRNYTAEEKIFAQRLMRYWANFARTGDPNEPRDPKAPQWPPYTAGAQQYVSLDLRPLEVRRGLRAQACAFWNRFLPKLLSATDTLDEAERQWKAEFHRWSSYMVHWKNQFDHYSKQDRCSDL
- procedure.summary: Acetylcholinesterase (AChE) small molecule antagonists: fluorescence cell-based qHTS assay (AID 1347398); also: nearly all actives have a fitted effect of over 50% in size
- condition.description: SH-SY5Y cells; AChE activity; series mostly up to 115 µM
- Source text: National Center for Advancing Translational Sciences [NCATS] Division of Preclinical Innovation [DPI] U.S. Environmental Protection Agency [EPA] National Institutes of Environmental Health Sciences [NIEHS] National Toxicology Program [NTP] […] A homogenous cell-based assay using Amplitetrade mark Fluorimetric Acetylcholinesterase Assay Kit *Green Fluorescence* (AAT Bioquest, Sunnyvale, CA) was used to evaluate the chemicals in the Tox21 10K library that inhibit AChE activity. […]
Inconclusive results are not listed. Active and inactive are the calls of the source. Calls come from the whole dose curve.

compound | outcome
NS(=O)(=O)c1cc2c(cc1Cl)NC=NS2(=O)=O | inactive
CCN(CC)CCOC(=O)C(c1ccccc1)C1CCCCC1 (configuration not stated) | inactive
NCCCC[C@H](N[C@@H](CCc1ccccc1)C(=O)O)C(=O)N1CCC[C@H]1C(=O)O | inactive
O=C1Nc2cc(Cl)ccc2Oc2ccccc21 | inactive
CS(C)(=O)=O | inactive
O=[N+]([O-])c1ccc(F)cc1F | inactive
Cc1cccc(C)c1O | inactive

---

- system: Acetylcholinesterase (Homo sapiens) (UniProt P22303)
- procedure.summary: Acetylcholinesterase (AChE) small molecule antagonists: colormetric cell-based qHTS assay (AID 1347395); also: potency is read from the fitted curve at half-maximal effect; nearly all actives have a fitted effect of over 30% in size
- condition.description: SH-SY5Y cells AChE activity, colorimetric (Ellman); series mostly up to 115 µM
Inconclusive results are not listed. The source made the active and inactive calls. The call rests on the fitted dose curve.
outcome.measure: Potency

compound | experimental.value
CCN(CC)c1ccc(C=O)c(O)c1 | 39.9 µM (active)
O=C(Nc1cccc(C2=NCCN2)c1)Nc1cccc(C2=NCCN2)c1 | 3.79 µM (active)
CC(=O)N1CCN(c2ccc(OC[C@H]3CO[C@](Cn4ccnc4)(c4ccc(Cl)cc4Cl)O3)cc2)CC1 | 35.6 µM (active)
COc1cccc2c1C(=O)c1c(O)c3c(c(O)c1C2=O)C[C@@](O)(C(=O)CO)C[C@@H]3O[C@H]1C[C@H](N)[C@H](O)[C@H](C)O1 | 8.71 µM (active)
C[N+](C)(C)CCCCCCCCCC[N+](C)(C)C | 15.5 µM (active)
O=c1[nH]c2ccc(S(=O)CCN3CCC(Cc4ccc(F)cc4)CC3)cc2o1 (centres undefined) | 6.33 µM (active)
Oc1ccc(CCNCCCCCCNCCc2ccccc2)cc1O | 7.76 µM (active)
CN1C[C@H](C(=O)N[C@]2(C)O[C@@]3(O)[C@@H]4CCCN4C(=O)[C@H](Cc4ccccc4)N3C2=O)C[C@@H]2c3cccc4[nH]cc(c34)C[C@H]21 | 19.5 µM (active)
COC(=O)c1cc(Cl)c(NC(C)=O)cc1OC | 27.5 µM (active)
CC(=O)/C=C/C1=C(C)CCCC1(C)C | 35.6 µM (active)
O=Cc1ccc(Cl)c([N+](=O)[O-])c1 | 39.9 µM (active)
CNC(=O)Oc1cc(C)c(SC)c(C)c1 | 3.17 µM (active)
CCc1c(C)cc(N)c(CC)c1N | 39.9 µM (active)
Cc1c(Cl)c(=O)oc2cc(O)ccc12 | 35.6 µM (active)
CN1CCc2cccc3c2[C@H]1Cc1ccc(O)c(O)c1-3 | 64 µM (active)
CCCCCCCCCCn1cc[n+](CCCCCCCCCC)c1C | 79.8 µM (active)
CCOC(=O)COc1ccc2c(C)c(CCN(CC)CC)c(=O)oc2c1Cl | 13.8 µM (active)
O=C1c2ccccc2C(=O)N1CCc1noc(-c2ccc(CN3CCCCCC3)s2)n1 | 6.51 µM (active)
CC/C(=C(\c1ccc(O)cc1)c1ccc(OCCN(C)C)cc1)c1ccccc1 | 44.9 µM (active)

---

- procedure.summary: A CellTox Green Cytotoxicity Assay to monitor cytotoxicity in HEK293 cells - 16 hour (AID 1224888); also: nearly all actives have a fitted effect of over 35% in size
- condition.description: CellTox Green fluorescence; series mostly up to 76.8 µM
Results filed as inconclusive are left out. Active and inactive are the calls of the source. Calls follow the shape of the dose curve; as a rule, active = well fitted activation curve with a large enough effect in the repeat runs; inconclusive = weak or mixed curves; inactive = flat fitted curve, though single readings scatter.
Labels: active, inactive

compound | class.name
Cc1ccc(N(SC(F)(Cl)Cl)S(=O)(=O)N(C)C)cc1 | active
Cc1nnc2n1-c1sc(CCc3ccc(CC(C)C)cc3)cc1C(c1ccccc1Cl)=NC2C (stereo not given) | inactive
C[C@]12CC[C@@H](O)C[C@@H]1CC[C@@H]1[C@@H]2CC[C@]2(C)C(=O)CC[C@@H]12 | inactive
ClC(Cl)=C(c1ccc(Cl)cc1)c1ccccc1Cl | inactive
CC1COC(Cn2cncn2)(c2ccc(Oc3ccc(Cl)cc3)cc2Cl)O1 (stereo not given) | inactive
CN1CSC(=S)N(C)C1 | inactive
Cc1cc(C)c(C(=O)P(=O)(c2ccccc2)c2ccccc2)c(C)c1 | inactive
COc1ccc(C(c2ccc(OC)cc2)C(Cl)(Cl)Cl)cc1 | inactive
O=C1C(I)=CC(=C(c2cc(I)c(O)c(I)c2)c2ccccc2C(=O)O)C=C1I | inactive
COc1cc(OC)c(OC)cc1C=O | inactive
OCC(c1ccc(Cl)cc1)c1ccc(Cl)cc1 | active
O=C(c1ccccc1)C(Cl)Cl | inactive
CCOC(=O)C(O)(c1ccc(Cl)cc1)c1ccc(Cl)cc1 | inactive
O=[N+]([O-])c1c(Cl)c(Cl)cc(Cl)c1Cl | active
OC(Cc1ccccc1Cl)(Cn1[nH]cnc1=S)C1(Cl)CC1 (stereo not given) | inactive

---

- system: Estrogen receptor (Homo sapiens)
- procedure.summary: qHTS assay to identify small molecule agonists of the estrogen receptor alpha (ER-alpha) signaling pathway using the BG1 cell line (AID 743079); also: nearly all actives have a fitted effect of over 20% in size
- condition.description: BG1Luc4E2 cells, ERE-luciferase agonist, 22 h; series mostly up to 70.3 µM
Results filed as inconclusive are left out. Activity calls are given as the source filed them. Calls follow the shape of the dose curve; as a rule, active = well fitted activation curve with a large enough effect in the repeat runs; inconclusive = weak or mixed curves, or effect the other way; inactive = no such curve, though single readings can be large or run the other way.
Labels: Yes = active, No = inactive

molecule | class.name
CN1CSC(=S)N(C)C1 | No
CC(=O)O[C@H]1CC[C@H]2[C@@H]3CCC4=CC(=O)CCC4=C3C=C[C@]12C | Yes
CC(C)=CCN1CC[C@]2(C)c3cc(O)ccc3C[C@H]1[C@H]2C | Yes
CCCC(C)C1(CC)C(=O)NC(=O)NC1=O (stereo not given) | No
CC(C)[C@@]1(NC(=O)[C@@H]2C[C@@H]3c4cccc5[nH]cc(c45)C[C@H]3N(C)C2)O[C@@]2(O)[C@@H]3CCCN3C(=O)[C@H](Cc3ccccc3)N2C1=O | No

---

- procedure.summary: qHTS assay to identify small molecule antagonists of the androgen receptor (AR) signaling pathway using the MDA cell line - cell viability counter screen (AID 743041; also: nearly all actives have a fitted effect of over 45% in size)
- condition.description: MDA-kb2 viability, CellTiter-Fluor, 16 h, cells co-treated with R1881 androgen agonist; series mostly up to 70.3 µM
Records with an inconclusive call do not appear. Calls of active or inactive are those of the source. The call rests on the fitted dose curve; in most records, active means well fitted cell-killing curve with a large enough effect in the repeat runs; inconclusive means weak or mixed curves, or effect the other way; inactive means flat fitted curve, though single readings scatter.
Possible outcomes: label 1 (active), label 0 (inactive)

molecule | class.name
Cc1ccc(N(SC(F)(Cl)Cl)S(=O)(=O)N(C)C)cc1 | label 1
CCOC(=O)C(O)(c1ccc(Cl)cc1)c1ccc(Cl)cc1 | label 1
COC1=CC=C2[C@H]3Cc4ccc(OC)c5c4[C@@]2(CCN3C)[C@H]1O5 | label 0
C=CCC1([C@@H](C)CCC)C(=O)NC(=O)NC1=O | label 0
O=C1CCCCC1CN1CCCCC1 (configuration not stated) | label 0
CCC(=O)O[C@]1(c2ccccc2)CCN(C)C[C@H]1C | label 0
CCC1(c2ccccc2)C(=O)NC(=O)N(C(=O)c2ccccc2)C1=O (configuration not stated) | label 0
C[C@]12CCC(=O)C[C@@H]1CC[C@@H]1[C@@H]2CC[C@@]2(C)[C@H]1CC[C@]2(C)O | label 0
CC1(C)[C@H](C=C(Cl)Cl)[C@H]1C(=O)OCc1c(F)c(F)cc(F)c1F | label 0
C[C@@H](Cc1ccccc1)N(C)C | label 0
NC(=O)CN1CC(O)CC1=O (configuration not stated) | label 0
O=C(O)CCCO | label 0
O=C(O)/C=C\C(=O)O | label 0
ClC1=C(Cl)[C@]2(Cl)[C@@H]3[C@@H](Cl)[C@H]4O[C@H]4[C@@H]3C1(Cl)C2(Cl)Cl | label 0
COc1cc(OC)c(OC)cc1C=O | label 0
O[C@H]1[C@H]2[C@H](O)CCCN2C[C@H]1O | label 0
CC(=O)[C@H]1CC[C@H]2[C@@H]3CC[C@@H]4C[C@H](O)CC[C@]4(C)[C@H]3CC[C@]12C | label 0
C[C@@H](CO)NC(=O)[C@@H]1C=C2c3cccc4[nH]cc(c34)C[C@H]2N(C)C1 | label 0
CC[C@H]1[C@@H]2C[C@H]3[C@@H]4N(C)c5ccccc5[C@]45C[C@@H](C2[C@H]5O)N3[C@@H]1O (some centres not stated) | label 0
C[C@]12CC[C@H]3[C@@H](CCC4=C(O)C(=O)CC[C@@H]43)[C@@H]1CC[C@@H]2OC(=O)CCC1CCCC1 | label 0
C[N+]1(C)[C@@H]2CC[C@H]1CC(OC(=O)c1c[nH]c3ccccc13)C2 (some centres not stated) | label 0
C[C@@H]1[C@H]2Cc3ccc(O)cc3[C@]1(C)CCN2C | label 0
